target.of.assay: Cyclophilin A (CypA) (Homo sapiens (Human), UniProt P62937)
Sequence (P62937 whole entry): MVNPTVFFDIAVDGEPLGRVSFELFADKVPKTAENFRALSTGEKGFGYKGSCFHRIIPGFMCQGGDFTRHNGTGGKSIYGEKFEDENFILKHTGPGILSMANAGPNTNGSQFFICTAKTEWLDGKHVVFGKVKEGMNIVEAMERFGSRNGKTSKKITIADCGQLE
experiment: Cyclophilin PPIase enzymatic assay (chymotrypsin coupled), CypA
Format: biochemical
run.parameters: activity test at 100 μM on CypA; read-out: Inhibition (%)
property: inhibition at 100 µM (%)
One number for each entry, in %.

Example results:
molecule	uom	inhibition at 100 µM
CCOC(=O)CNC(=O)NCc1nc2ccccc2[nH]1 [Compound F538]	%	15.5
Nc1ccc(CNC(=O)NCC(=O)N2CCOCC2)cc1 [Compound F544]	%	12.2
CCOC(=O)C(Cc1cccc(OCc2ccccc2)c1)NC(=O)NCc1ccc(N)cc1 (stereo not shown) [Compound F611]	%	72.8

Item COc1ccc(N(C)C(=O)CNC(=O)NCc2ccc(N)cc2)cc1 [Compound F555] has what recorded inhibition at 100 µM?
65.1

###

target.of.assay: Cyclophilin B (CypB) (Homo sapiens (Human))
experiment: Cyclophilin PPIase enzymatic assay (chymotrypsin coupled), CypB
Type: biochemical
property: inhibition at 100 µM (%)
One number for each entry, in %.

Example results:
molecule	number
CCOC(=O)CNC(=O)NCc1c(F)cccc1NC(C)=O [Compound F565]	34.5
COc1ccccc1C1CCCN1C(=O)CNC(=O)NCc1ccc(N)nc1 (centres unmarked) [Compound F587]	99
CCOC(=O)CNC(=O)NCc1cc(C)on1 [Compound F526]	21.2

Dear colleague, could you send me inhibition at 100 µM for each of the items below? Thanks.
1. CCN(OCc1ccccc1)C(=O)CNC(=O)NCc1ccc(N)nc1 [Compound F599]
2. COc1ccccc1C1CCCN1C(=O)CNC(=O)NCc1ccc(N)cc1 (centres unmarked) [Compound F609]

1: 71.8; 2: 101

###

Consider the following compounds; for each one, report its Inhibition (%).
target.of.assay: Cyclophilin B (CypB) (Homo sapiens (Human), UniProt P23284)
Sequence (P23284 34-216): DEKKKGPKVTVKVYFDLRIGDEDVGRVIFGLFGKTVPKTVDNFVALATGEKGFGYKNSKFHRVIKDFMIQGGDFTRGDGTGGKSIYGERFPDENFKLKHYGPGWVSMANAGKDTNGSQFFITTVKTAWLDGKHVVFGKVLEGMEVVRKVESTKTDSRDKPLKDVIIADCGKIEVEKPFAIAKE
experiment: Cyclophilin PPIase enzymatic assay (chymotrypsin coupled), CypB
Type: biochemical
run.parameters: activity test at 100 μM on CypB
Answers are plain numbers, in %.

Example results:
compound	Inhibition (%)
Nc1ccc(CNC(=O)NCC(=O)N2CCCCC2)cc1	37.5
CCOC(=O)CNC(=O)NCc1cccc(-c2ncccn2)c1	15.4
CCOC(=O)CNC(=O)NCc1ccccc1-c1ccco1	38.9
CC(C)N(Cc1cccc2c1OCO2)C(=O)CNC(=O)NCc1ccc(N)nc1	18.2
Nc1ccc(CNC(=O)Nc2cnc3sccn3c2=O)cn1	19.8
Nc1ccc(CNC(=O)NCC(=O)N2CCOCC2)cn1	37.0
CCOC(=O)CNC(=O)NCc1ccc(N)c2ccccc12	47.3
Nc1ccc(CNC(=O)NCC(=O)NCc2cccc(-n3cncn3)c2)cc1	28.0
Nc1ccc(CNC(=O)NCC(=O)N2CCCO2)cn1	35.0
CCOC(=O)CNC(=O)NCc1cccc2ccccc12	33.1

Dear colleague, could you send me Inhibition (%) for each of the items below? Thanks.
1. CCN(OCc1ccccc1)C(=O)CNC(=O)NCc1ccc(N)cc1
2. Nc1ccc(CNC(=O)NCC(=O)NCc2cccc(CN3CCOCC3)c2)cc1
3. Nc1ccc(CNC(=O)NCC(=O)N2CCCCC2C(=O)N2CCCC2)cc1 (stereo not shown)

1. 95.3
2. 21.9
3. 58.5

###

Measured pIC50 on Cyclophilin B (CypB) (Homo sapiens (Human)) follows.
Give bare numbers, as −log10 of the molar value.

Example results:
molecule	target.of.assay	pIC50
CCN(OCc1ccccc1)C(=O)CNC(=O)NCc1ccc(N)cc1 [Compound F607]	Cyclophilin B (CypB) (Homo sapiens (Human))	5.32
COc1ccccc1C1CCCN1C(=O)CNC(=O)NCc1ccc(N)cc1 (stereo not shown) [Compound F609]	Cyclophilin B (CypB) (Homo sapiens (Human))	5.92
CSc1ccccc1C1CCCN1C(=O)CNC(=O)NCc1ccc(N)cc1 (stereo not shown) [Compound F684]	Cyclophilin B (CypB) (Homo sapiens (Human))	6.19
Nc1ccc(CNC(=O)NCC(=O)N2CCOC(CN3C(=O)c4ccccc4C3=O)C2)cc1 (stereo not shown) [Compound F554]	Cyclophilin B (CypB) (Homo sapiens (Human))	4.61
COc1ccccc1C1CCCN1C(=O)CNC(=O)NCc1ccc(N)nc1 (stereo not shown) [Compound F587]	Cyclophilin B (CypB) (Homo sapiens (Human))	5.28

Dear colleague, could you send me pIC50 for each of the items below? Thanks.
1. CCOC(=O)C1CCCN(C(=O)CNC(=O)NCc2ccc(N)cc2)C1 (stereo not shown) [Compound F545]
2. Nc1ccc(CNC(=O)NCC(=O)N2CCCCC2C(=O)N2CCCC2)cc1 (stereo not shown) [Compound F542]

1. 4.12
2. 4.44
